Assay: Acid dissociation constant (pKa) of the compound
Assay type: physicochemical
reportedProperty: pKa

Here's what some known entries look like.
>  <chemSmiles>
Nc1nc2cc(O)ccc2[nH]1

>  <measuredResult>
7.4

$$$$
>  <chemSmiles>
N=C(N)Nc1ccccc1

>  <measuredResult>
10.9

$$$$

[P] N=C(N)c1ccc(N)cc1
[Q] Nc1nc2ccccc2[nH]1
Request: Could you kindly indicate whether P or Q has the higher pKa value? Your answer should be the label of the entry you select.
Result: P
(P: 11.4, Q: 7.5)
